- SYSTEM UNDER TEST: M1 muscarinic receptor (Homo sapiens)
- Construct: expressed in transfected cells; host or cells: CHO cells (M1-CHO, under zeocin and G418 selection)
- Sequence (P11229 1-460): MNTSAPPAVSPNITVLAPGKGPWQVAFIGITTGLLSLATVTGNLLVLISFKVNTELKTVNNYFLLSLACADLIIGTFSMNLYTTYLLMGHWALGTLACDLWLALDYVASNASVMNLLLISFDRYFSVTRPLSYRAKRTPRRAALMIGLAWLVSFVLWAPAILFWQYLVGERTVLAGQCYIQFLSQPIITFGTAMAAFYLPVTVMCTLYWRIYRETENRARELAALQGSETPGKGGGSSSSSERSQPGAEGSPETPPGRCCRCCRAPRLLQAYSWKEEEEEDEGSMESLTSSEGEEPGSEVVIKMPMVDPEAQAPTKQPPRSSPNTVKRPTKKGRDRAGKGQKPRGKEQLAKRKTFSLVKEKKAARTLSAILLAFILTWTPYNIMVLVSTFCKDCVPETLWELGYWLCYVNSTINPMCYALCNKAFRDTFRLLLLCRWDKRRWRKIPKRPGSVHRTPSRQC
- ASSAY NAME: Functional mobilization of intracellular calcium (FLIPR, Fluo-3), M1-CHO cells
- Format: cell-based
- MEASUREMENT PARAMETERS: compound nos. 1-454; 100% efficacy is the maximum response obtained with the Carbachol control; read-out: M1 Efficacy

- COMPOUND: "CCOC(=O)N1CCC(N2CCC3(CC2)CN(C(C)=O)c2ccc(-c4ccc(C(F)(F)F)cc4)cc23)CC1"
  Emax: "65 to 85%"
- COMPOUND: "COCCOC(=O)N1CC2(CCN(C3CC4CCC(C3)N4C(=O)O[C@@H]3CCOC3)CC2)c2cc(F)ccc21 (some centres unmarked)"
  Emax: "65 to 85%"
- COMPOUND: "O=C(O[C@@H]1CCOC1)N1CC2(CCN(C3CC4CCC(C3)N4C(=O)O[C@@H]3CCOC3)CC2)c2cc(F)ccc21 (some centres unmarked)"
  Emax: "65 to 85%"
- COMPOUND: "CC(=O)N[C@H]1CC2(CCN(CC3CCCCC3)CC2)c2ccccc21"
  Emax: "> 85%"
- COMPOUND: "CS(=O)(=O)N1CC2(CCN(C3CC4CCC(C3)N4C(=O)O[C@H]3CCOC3)CC2)c2cc(F)ccc21 (some centres unmarked)"
  Emax: "65 to 85%"
- COMPOUND: "CC(=O)NC1CC2(CCN(C3CC4CCC3C4)CC2)c2ccccc21 (centres unmarked)"
  Emax: "65 to 85%"
- COMPOUND: "CC(=O)N1CC2(CCN(C3CCCCC3C)CC2)c2cc(F)ccc21 (centres unmarked)"
  Emax: "> 85%"
- COMPOUND: "CC(=O)N1CC2(CCN(C3CC[C@@H]4CC[C@@H]3C4)CC2)c2cc(F)ccc21 (some centres unmarked)"
  Emax: "65 to 85%"
